# testMethodNotes: Half life in solid tumor patient at 40 mg, po during phase 1 clinical trial
# Type: ADME, organism-based
# experimentalContext: human, in vivo

| compound | half-life, h |
| --- | --- |
| O=C(Cc1ccc(-c2ccc(OCCN3CCOCC3)cc2)cn1)NCc1ccccc1 [TIRBANIBULIN] | 4 |

----------
# testMethodNotes: Tmax in solid tumor patient at 40 mg, po during phase 1 clinical trial
# Type: ADME, organism-based
# experimentalContext: human, in vivo

| cpdSmiles | Tmax |
| --- | --- |
| O=C(Cc1ccc(-c2ccc(OCCN3CCOCC3)cc2)cn1)NCc1ccccc1 | 1 h |

----------
# testMethodNotes: Ratio of AUC in brain to plasma of mouse at 20 mg/kg, po
# Format: ADME, organism-based
# experimentalContext: brain and plasma, read-out: Ratio AUC

| compound | Kp |
| --- | --- |
| O=C(Cc1ccc(-c2ccc(N3CCOCC3)cc2)cn1)NCc1cccc(F)c1 [KX2-361] | 1.16 |

----------
# testMethodNotes: Cmax in solid tumor patient at 50 mg, po BID measured during first monthly cycle during phase 1 clinical trial
# Assay type: ADME, organism-based
# Design: dose 50 mg, route oral
# experimentalContext: human, in vivo
quantityKind: Cmax (ng/mL)

| molecule | quantityKind | observedValue |
| --- | --- | --- |
| O=C(Cc1ccc(-c2ccc(OCCN3CCOCC3)cc2)cn1)NCc1ccccc1 [TIRBANIBULIN] | Cmax | 231 |

----------
# studySystem: UniProt P05480
# Sequence (P05480 2-535 limits assumed): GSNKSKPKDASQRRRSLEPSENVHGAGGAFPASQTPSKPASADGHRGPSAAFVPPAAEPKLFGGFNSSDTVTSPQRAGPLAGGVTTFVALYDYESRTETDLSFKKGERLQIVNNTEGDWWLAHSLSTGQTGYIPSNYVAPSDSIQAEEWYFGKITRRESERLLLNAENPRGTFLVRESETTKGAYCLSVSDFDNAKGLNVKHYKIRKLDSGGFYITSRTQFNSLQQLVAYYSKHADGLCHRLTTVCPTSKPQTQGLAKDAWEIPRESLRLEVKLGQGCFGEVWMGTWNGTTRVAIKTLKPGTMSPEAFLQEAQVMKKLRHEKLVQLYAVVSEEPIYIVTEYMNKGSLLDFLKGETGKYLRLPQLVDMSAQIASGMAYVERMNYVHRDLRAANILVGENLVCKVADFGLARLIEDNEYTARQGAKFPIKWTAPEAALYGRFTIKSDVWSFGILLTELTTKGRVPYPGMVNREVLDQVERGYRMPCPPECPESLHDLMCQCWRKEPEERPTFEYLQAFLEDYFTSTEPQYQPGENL
# testMethodNotes: Inhibition of Src autophosphorylation in mouse GL261 cells
quantityKind: IC50 (µM)

| molecule | studySystem | observedValue |
| --- | --- | --- |
| O=C(Cc1ccc(-c2ccc(N3CCOCC3)cc2)cn1)NCc1cccc(F)c1 [KX2-361] | UniProt P05480 | 0.06 |

----------
# testMethodNotes: Half life in dog
# Format: ADME, Canis lupus familiaris
# experimentalContext: in vivo
quantityKind: half-life

| molecule | quantityKind | observedValue |
| --- | --- | --- |
| O=C(Cc1ccc(-c2ccc(OCCN3CCOCC3)cc2)cn1)NCc1ccccc1 [TIRBANIBULIN] | half-life | 8 h |

----------
# testMethodNotes: Drug absorption in po dosed rat
# Assay type: ADME, organism-based
# experimentalContext: in vivo, read-out: Drug absorption
quantityKind: Fa

| compound | observedValue |
| --- | --- |
| O=C(Cc1ccc(-c2ccc(OCCN3CCOCC3)cc2)cn1)NCc1ccccc1 [TIRBANIBULIN] | 50 to 90% |

----------
# testMethodNotes: Cmax in solid tumor patient at 40 mg, po during phase 1 clinical trial
# Assay type: ADME, organism-based
# Set-up: dose 40 mg, route oral
# experimentalContext: human, in vivo
quantityKind: Cmax (µg/mL)

| compound | observedValue |
| --- | --- |
| O=C(Cc1ccc(-c2ccc(OCCN3CCOCC3)cc2)cn1)NCc1ccccc1 [TIRBANIBULIN] | 0.08 |

----------
# studySystem: Insulin receptor (Homo sapiens, UniProt P06213)
# Sequence (P06213 28-758 limits assumed): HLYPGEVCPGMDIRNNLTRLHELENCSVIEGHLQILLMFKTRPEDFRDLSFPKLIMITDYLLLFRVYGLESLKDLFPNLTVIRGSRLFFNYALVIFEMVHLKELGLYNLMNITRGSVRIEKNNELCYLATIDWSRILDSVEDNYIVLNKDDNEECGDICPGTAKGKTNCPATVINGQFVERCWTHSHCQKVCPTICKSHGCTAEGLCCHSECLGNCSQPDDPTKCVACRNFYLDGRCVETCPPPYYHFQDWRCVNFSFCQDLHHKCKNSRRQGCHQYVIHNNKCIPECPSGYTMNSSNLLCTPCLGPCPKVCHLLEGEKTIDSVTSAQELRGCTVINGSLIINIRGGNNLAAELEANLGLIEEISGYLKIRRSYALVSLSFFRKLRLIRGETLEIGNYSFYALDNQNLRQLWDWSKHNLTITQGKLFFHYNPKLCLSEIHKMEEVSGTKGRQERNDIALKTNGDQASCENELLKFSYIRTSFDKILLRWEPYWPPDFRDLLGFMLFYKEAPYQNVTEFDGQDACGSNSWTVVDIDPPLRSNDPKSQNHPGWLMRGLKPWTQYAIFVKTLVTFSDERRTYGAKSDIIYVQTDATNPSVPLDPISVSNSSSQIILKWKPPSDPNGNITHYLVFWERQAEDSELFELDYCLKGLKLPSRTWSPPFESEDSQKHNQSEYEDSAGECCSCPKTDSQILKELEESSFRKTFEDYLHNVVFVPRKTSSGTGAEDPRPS
# Sequence (P06213 763-1382 limits assumed): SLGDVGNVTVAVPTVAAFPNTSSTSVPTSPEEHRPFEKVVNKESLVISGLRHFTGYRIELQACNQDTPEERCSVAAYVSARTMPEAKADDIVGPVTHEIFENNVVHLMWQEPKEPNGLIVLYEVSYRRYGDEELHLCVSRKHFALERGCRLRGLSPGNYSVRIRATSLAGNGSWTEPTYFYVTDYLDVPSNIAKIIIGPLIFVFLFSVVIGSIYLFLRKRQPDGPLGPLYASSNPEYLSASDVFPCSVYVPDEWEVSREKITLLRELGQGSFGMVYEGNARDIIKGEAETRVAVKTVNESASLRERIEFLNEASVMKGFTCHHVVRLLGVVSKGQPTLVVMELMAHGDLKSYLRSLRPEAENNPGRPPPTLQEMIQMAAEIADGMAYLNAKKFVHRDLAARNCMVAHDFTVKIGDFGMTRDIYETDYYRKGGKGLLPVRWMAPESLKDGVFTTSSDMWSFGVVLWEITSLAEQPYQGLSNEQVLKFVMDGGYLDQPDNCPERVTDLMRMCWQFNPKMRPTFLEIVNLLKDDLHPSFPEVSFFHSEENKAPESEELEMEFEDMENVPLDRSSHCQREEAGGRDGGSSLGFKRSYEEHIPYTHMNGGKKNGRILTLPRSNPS
# testMethodNotes: Non-competitive inhibition of human placental insulin receptor expressed in CHO cell membrane assessed as decrease in insulin-stimulated A2 phosphorylation preincubated for 15 mins followed by substrate addition and measured after 15 mins in presence of [gamma-32P]ATP by Dixon plot analysis
pKi: −log10 of the molar value.

| compound | pKi |
| --- | --- |
| O=P(O)(O)C(O)c1ccc2ccccc2c1 (stereo unspecified) | 4.02 |

----------
# Test system: A549
# testMethodNotes: Antitumor activity against human A549 cells
# Assay type: functional, cell-based
pIC50: −log10 of the molar value.

| cpdSmiles | pIC50 |
| --- | --- |
| O=C(NCc1cccc(O)c1)c1cc2cc(O)ccc2[nH]1 | 4.39 |

----------
# studySystem: Proto-oncogene tyrosine-protein kinase Src (Homo sapiens, UniProt P12931)
# Sequence (P12931 2-536 limits assumed): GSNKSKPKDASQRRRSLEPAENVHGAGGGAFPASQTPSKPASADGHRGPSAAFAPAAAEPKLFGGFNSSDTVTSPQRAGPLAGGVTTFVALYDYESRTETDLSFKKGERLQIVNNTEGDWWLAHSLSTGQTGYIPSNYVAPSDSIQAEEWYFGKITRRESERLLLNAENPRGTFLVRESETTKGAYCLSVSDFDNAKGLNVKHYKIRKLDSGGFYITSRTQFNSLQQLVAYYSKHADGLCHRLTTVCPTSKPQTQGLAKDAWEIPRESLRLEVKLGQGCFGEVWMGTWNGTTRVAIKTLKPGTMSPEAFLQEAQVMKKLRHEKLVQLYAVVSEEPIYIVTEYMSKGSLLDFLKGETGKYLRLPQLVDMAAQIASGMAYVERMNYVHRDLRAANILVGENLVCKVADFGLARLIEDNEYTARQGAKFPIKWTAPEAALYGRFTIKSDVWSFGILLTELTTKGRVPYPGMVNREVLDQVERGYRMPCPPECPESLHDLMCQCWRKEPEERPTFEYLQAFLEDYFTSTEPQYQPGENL
# testMethodNotes: Inhibition of human recombinant pp60c-src expressed in baculovirus infected Sf9 insect cells using poly(Glu,Tyr) 4:1 as substrate after 15 mins

| cpdSmiles | IC50 |
| --- | --- |
| COc1cc2c(Nc3c(Cl)ccc4c3OCO4)ncnc2cc1OCCCN1CCCCC1 | < 4 nM |
